Cited source: the supplement of paper PMC10307832

Measured relative viability by item
# Tested on: NCI-H647
# experiment.description: relative viability (nuclei count vs DMSO), 5 days (fraction); higher = more cells survive
# measurement.context: first compound 0.05 µM
measurement.kind: relative viability

• COc1cc2nccc(Oc3ccc(NC(=O)Nc4cc(C)on4)c(Cl)c3)c2cc1OC [Tivozanib] + O=C(c1cc(Cc2n[nH]c(=O)c3ccccc23)ccc1F)N1CCN(C(=O)C2CC2)CC1 [Olaparib] (partner 8 µM) = 0.63
• COc1cc2nccc(Oc3ccc(NC(=O)Nc4cc(C)on4)c(Cl)c3)c2cc1OC [Tivozanib] + Nc1ncn([C@H]2C[C@H](O)[C@@H](CO)O2)c(=O)n1 [Decitabine] (partner 2 µM) = 0.302
• COc1cc2nccc(Oc3ccc(NC(=O)Nc4cc(C)on4)c(Cl)c3)c2cc1OC [Tivozanib] + CC(C)C[C@H](NC(=O)[C@H](Cc1ccccc1)NC(=O)c1cnccn1)B(O)O [Bortezomib] (partner 0.002 µM) = 1.05

* * *

Measured relative viability by item
# Test system: COR-L 105
# experiment.description: relative viability (nuclei count vs DMSO), 5 days (fraction); higher = more cells survive
# measurement.context: first compound 0.04 µM
measurement.kind: relative viability

* Cc1sc2c(c1C)C(c1ccc(Cl)cc1)=N[C@@H](CC(=O)OC(C)(C)C)c1nnc(C)n1-2 [JQ1] + N=C(N)NC(=N)NCCc1ccccc1 [Phenformin] (partner 250 µM) | 0.432
* Cc1sc2c(c1C)C(c1ccc(Cl)cc1)=N[C@@H](CC(=O)OC(C)(C)C)c1nnc(C)n1-2 [JQ1] + Cc1nc(NC(=O)N2CCC[C@H]2C(N)=O)sc1-c1ccnc(C(C)(C)C(F)(F)F)c1 [Alpelisib] (partner 2 µM) | 0.799
* Cc1sc2c(c1C)C(c1ccc(Cl)cc1)=N[C@@H](CC(=O)OC(C)(C)C)c1nnc(C)n1-2 [JQ1] + CC(=O)Nc1cccc(-n2c(=O)n(C3CC3)c(=O)c3c(Nc4ccc(I)cc4F)n(C)c(=O)c(C)c32)c1 [Trametinib] (partner 0.02 µM) | 0.46
* Cc1sc2c(c1C)C(c1ccc(Cl)cc1)=N[C@@H](CC(=O)OC(C)(C)C)c1nnc(C)n1-2 [JQ1] + CS(=O)(=O)N1CCN(Cc2cc3nc(-c4cccc5[nH]ncc45)nc(N4CCOCC4)c3s2)CC1 [Pictilisib] (partner 1 µM) | 0.374
* Cc1sc2c(c1C)C(c1ccc(Cl)cc1)=N[C@@H](CC(=O)OC(C)(C)C)c1nnc(C)n1-2 [JQ1] + O=C(CCCCCCC(=O)Nc1ccccc1)NO [Vorinostat] (partner 1 µM) | 0.743
* Cc1sc2c(c1C)C(c1ccc(Cl)cc1)=N[C@@H](CC(=O)OC(C)(C)C)c1nnc(C)n1-2 [JQ1] + CS(=O)(=O)CCNCc1ccc(-c2ccc3ncnc(Nc4ccc(OCc5cccc(F)c5)c(Cl)c4)c3c2)o1 [Lapatinib] (partner 2 µM) | 0.291
* Cc1sc2c(c1C)C(c1ccc(Cl)cc1)=N[C@@H](CC(=O)OC(C)(C)C)c1nnc(C)n1-2 [JQ1] + C[C@]1(O)C[C@@H](c2nc(-c3ccc4ccc(-c5ccccc5)nc4c3)c3c(N)nccn32)C1 [Linsitinib] (partner 1 µM) | 0.868

* * *

# Test system: NCI-H727
# experiment.description: relative viability (nuclei count vs DMSO), 5 days (fraction); higher = more cells survive
# measurement.context: first compound 2.53 µM
measurement.kind: relative viability

- Cc1cnc(-c2cnc(NCCNc3ccc(C#N)cn3)nc2-c2ccc(Cl)cc2Cl)[nH]1 + COc1cc2c(Oc3ccc(NC(=O)C4(C(=O)Nc5ccc(F)cc5)CC4)cc3F)ccnc2cc1OCCCN1CCOCC1 [Foretinib] (partner 0.25 µM): 0.898
- O=c1[nH]c2ccccc2n1C1CCN(CCCC(c2ccc(F)cc2)c2ccc(F)cc2)CC1 [Pimozide] + CCNC(=O)c1noc(-c2cc(C(C)C)c(O)cc2O)c1-c1ccc(CN2CCOCC2)cc1 [Luminespib] (partner 0.01 µM): 0.593
- O=c1[nH]c2ccccc2n1C1CCN(CCCC(c2ccc(F)cc2)c2ccc(F)cc2)CC1 [Pimozide] + CS(=O)(=O)CCNCc1ccc(-c2ccc3ncnc(Nc4ccc(OCc5cccc(F)c5)c(Cl)c4)c3c2)o1 [Lapatinib] (partner 2 µM): 0.754
- O=c1[nH]c2ccccc2n1C1CCN(CCCC(c2ccc(F)cc2)c2ccc(F)cc2)CC1 [Pimozide] + CS(=O)(=O)N1CCN(Cc2cc3nc(-c4cccc5[nH]ncc45)nc(N4CCOCC4)c3s2)CC1 [Pictilisib] (partner 1 µM): 0.308
- Cc1cnc(-c2cnc(NCCNc3ccc(C#N)cn3)nc2-c2ccc(Cl)cc2Cl)[nH]1 + CS(=O)(=O)CCNCc1ccc(-c2ccc3ncnc(Nc4ccc(OCc5cccc(F)c5)c(Cl)c4)c3c2)o1 [Lapatinib] (partner 2 µM): 0.782

* * *

Measured relative viability by item
# Tested on: NCI-H2023
# experiment.description: relative viability (nuclei count vs DMSO), 5 days (fraction); higher = more cells survive
# measurement.context: first compound 0.000632 µM
measurement.kind: relative viability

* CC(=O)O[C@@]12CO[C@@H]1C[C@H](O)[C@@]1(C)C(=O)[C@H](O)C3=C(C)[C@@H](OC(=O)[C@H](O)[C@@H](NC(=O)OC(C)(C)C)c4ccccc4)C[C@@](O)([C@@H](OC(=O)c4ccccc4)[C@H]21)C3(C)C [Docetaxel] + COc1cc2c(Oc3ccc(NC(=O)C4(C(=O)Nc5ccc(F)cc5)CC4)cc3F)ccnc2cc1OCCCN1CCOCC1 [Foretinib] (partner 0.25 µM) | 0.868
* CC(=O)O[C@@]12CO[C@@H]1C[C@H](O)[C@@]1(C)C(=O)[C@H](O)C3=C(C)[C@@H](OC(=O)[C@H](O)[C@@H](NC(=O)OC(C)(C)C)c4ccccc4)C[C@@](O)([C@@H](OC(=O)c4ccccc4)[C@H]21)C3(C)C [Docetaxel] + Nc1ncn([C@H]2C[C@H](O)[C@@H](CO)O2)c(=O)n1 [Decitabine] (partner 2 µM) | 0.161
* CC(=O)O[C@@]12CO[C@@H]1C[C@H](O)[C@@]1(C)C(=O)[C@H](O)C3=C(C)[C@@H](OC(=O)[C@H](O)[C@@H](NC(=O)OC(C)(C)C)c4ccccc4)C[C@@](O)([C@@H](OC(=O)c4ccccc4)[C@H]21)C3(C)C [Docetaxel] + N=C(N)NC(=N)NCCc1ccccc1 [Phenformin] (partner 250 µM) | 0.292
* CC(=O)O[C@@]12CO[C@@H]1C[C@H](O)[C@@]1(C)C(=O)[C@H](O)C3=C(C)[C@@H](OC(=O)[C@H](O)[C@@H](NC(=O)OC(C)(C)C)c4ccccc4)C[C@@](O)([C@@H](OC(=O)c4ccccc4)[C@H]21)C3(C)C [Docetaxel] + Cc1cc(Nc2cc(N3CCN(C)CC3)nc(Sc3ccc(NC(=O)C4CC4)cc3)n2)n[nH]1 [Tozasertib] (partner 0.1 µM) | 0.288
* CC(=O)O[C@@]12CO[C@@H]1C[C@H](O)[C@@]1(C)C(=O)[C@H](O)C3=C(C)[C@@H](OC(=O)[C@H](O)[C@@H](NC(=O)OC(C)(C)C)c4ccccc4)C[C@@](O)([C@@H](OC(=O)c4ccccc4)[C@H]21)C3(C)C [Docetaxel] + Cc1nc(NC(=O)N2CCC[C@H]2C(N)=O)sc1-c1ccnc(C(C)(C)C(F)(F)F)c1 [Alpelisib] (partner 2 µM) | 0.553

* * *

# Test system: NCI-H727
# experiment.description: relative viability (nuclei count vs DMSO), 5 days (fraction); higher = more cells survive
# measurement.context: first compound 0.8 µM
Measured relative viability by item
measurement.kind: relative viability

- O=c1[nH]c2ccccc2n1C1CCN(CCCC(c2ccc(F)cc2)c2ccc(F)cc2)CC1 [Pimozide] + Cc1nc(Nc2ncc(C(=O)Nc3c(C)cccc3Cl)s2)cc(N2CCN(CCO)CC2)n1 [Dasatinib] (partner 0.075 µM): 0.4
- O=c1[nH]c2ccccc2n1C1CCN(CCCC(c2ccc(F)cc2)c2ccc(F)cc2)CC1 [Pimozide] + CC(C)C[C@H](NC(=O)[C@H](Cc1ccccc1)NC(=O)c1cnccn1)B(O)O [Bortezomib] (partner 0.002 µM): 0.884
- O=c1[nH]c2ccccc2n1C1CCN(CCCC(c2ccc(F)cc2)c2ccc(F)cc2)CC1 [Pimozide] + Nc1ncn([C@H]2C[C@H](O)[C@@H](CO)O2)c(=O)n1 [Decitabine] (partner 2 µM): 0.933
- O=c1[nH]c2ccccc2n1C1CCN(CCCC(c2ccc(F)cc2)c2ccc(F)cc2)CC1 [Pimozide] + CS(=O)(=O)CCNCc1ccc(-c2ccc3ncnc(Nc4ccc(OCc5cccc(F)c5)c(Cl)c4)c3c2)o1 [Lapatinib] (partner 2 µM): 0.85
- Cc1cnc(-c2cnc(NCCNc3ccc(C#N)cn3)nc2-c2ccc(Cl)cc2Cl)[nH]1 + N=C(N)NC(=N)NCCc1ccccc1 [Phenformin] (partner 250 µM): 0.478
